Target: HLA-A*6802 (Homo sapiens, UniProt P04439, A269V/D140Y/D185E/E176V/E277Q/E87N/F33Y/G231S/I121R/I166T/I218V/L180W/L300P/L318F/N151K/P208A/P217A/Q86R/R138H/R169H/S129P/T345S/V36M)
Assay: HLA class I binding assay, purified HLA, inhibition of 125I-labelled probe peptide
Conditions: A2 supermotif cross-reactive binding data; read-out: A*6802 nM
Measurement label: IC50

Please report the recorded IC50 for CSCC[C@H](NC(=O)[C@@H](N)Cc1ccccc1)C(=O)N[C@@H](CC(C)C)C(=O)N[C@@H](CS)C(=O)N[C@@H](C)C(=O)NCC(=O)N[C@@H](CC(C)C)C(=O)N[C@@H](Cc1c[nH]c2ccccc12)C(=O)N[C@H](C(=O)O)C(C)C [Peptide 1418.22] .
> 10 µM

# credit: patent US20040037843A1
